- procedureText: Human HepG2 cell viability assay in 384 well format
- Type: toxicity, cell-based
- Set-up: dose 125 nL, time 70.5 hour; concentration not given beside the values
- measurementSetup: HepG2 cells, read-out: Inhibition
measurementName: cytotoxicity at 70.5 h (%)

> print(dat)
                                    compound  recordedresult
 1  CNC(=O)NCC1CCC2(CCN(C(=O)c3cccnc3)CC2)CO1 (stereo not drawn)            3.36
 2  CNC(=O)c1cccc(C2CNCCN2C(=O)c2cccc(F)c2)c1 (stereo not drawn)              25
 3        COCCCNC(=O)c1cn(C(C)(C)C)c2ncccc12           -5.22
 4           COc1ccc(-c2ccnc(C3CCNCC3)c2)cc1           -5.12
 5  O=C(c1cccc(F)c1)N1CC[C@@H]2CN(c3ncccn3)CCO[C@@H]2C1           -15.1
 6  Cc1noc(C)c1CN1CC[C@H]2OCC[C@@]2(C(=O)N2CCOCC2)C1           -4.59
 7  Cc1ccc2c(c1)C(NC(=O)N(C)C)CC21CCN(CC2CC2)CC1 (stereo not drawn)           -9.46
 8  COCc1ccccc1C(=O)N1CCC(CNC(=O)OC(C)(C)C)C1 (stereo not drawn)           -6.54
 9  Clc1ccccc1-c1nc(CNC2CCc3ncnn3C2)co1 (stereo not drawn)           -2.04
10    O=c1cc(C2CCNCC2)nc(Cc2cccc(Cl)c2)[nH]1           -5.11
11  CCCS(=O)(=O)N1CCC2(CC1)CC(Nc1ncccn1)CO2 (stereo not drawn)           -99.6
12  CNC(=O)C(C)(C)N1CCC[C@H]1C(=O)NCCN1CCOCC1           -6.76
13  CS(=O)(=O)NCC(=O)NC1(c2ccc(Cl)c(Cl)c2)CC1           -2.05

====

- procedureText: Human HepG2 cell viability assay in 384 well format
- Format: toxicity, cell-based
- Set-up: dose 125 nL, time 70.5 hour; concentration not given beside the values
- measurementSetup: HepG2 cells, read-out: Inhibition
measurementName: cytotoxicity at 70.5 h (%)

> print(dat)
                                    molecule         measurementname  recordedresult
 1  Cc1cccc(C(=O)N2C[C@@H]3OCCN(C(C)C)[C@@H]3C2)n1  cytotoxicity at 70.5 h          -0.427
 2  CC(NC(=O)CN1C=Nc2ccccc2S1(=O)=O)c1ccccc1 (stereo not drawn)  cytotoxicity at 70.5 h           -9.29
 3  COc1nsc2nc(C3CCCN3c3ncccn3)ccc12 (stereo not drawn)  cytotoxicity at 70.5 h           -7.28
 4  COc1c(C2CCCN2C(=O)c2ccc(C#N)c(C)n2)c(C)nn1C (stereo not drawn)  cytotoxicity at 70.5 h           -8.97
 5  CN(C)Cc1ccnc(C2CCCN2Cc2cc3ccccc3s2)n1 (stereo not drawn)  cytotoxicity at 70.5 h           -1.24
 6  CC(C)(C)c1oc(C(N)=O)cc1CN1CCCCC(N)C1 (stereo not drawn)  cytotoxicity at 70.5 h           -7.89
 7  Cc1cc(C)n(CC2CN(CCOc3ccc(C#N)cc3)CCO2)n1 (stereo not drawn)  cytotoxicity at 70.5 h           -4.48
 8  Cc1cccc(C(C)C)c1NC(=O)CN(C)C(C)c1nccs1 (stereo not drawn)  cytotoxicity at 70.5 h           -9.73
 9  Cc1ccc2c(c1)N(C(=O)c1nccnc1N)CC(C)O2 (stereo not drawn)  cytotoxicity at 70.5 h           -3.11
10  O=C(c1cnc(C2CC2)s1)N1CCCC(n2cccn2)C1 (stereo not drawn)  cytotoxicity at 70.5 h           -2.13
11  CCCS(=O)(=O)N1C[C@@H]2COC[C@]2(CN2CCOCC2)C1  cytotoxicity at 70.5 h           -10.5
12  COc1ccc2c(c1)OCC(CNC1CCc3nc(C)nn3C1)=C2 (stereo not drawn)  cytotoxicity at 70.5 h           -8.64
13             O=c1ccc(-c2cccs2)nn1CN1CCOCC1  cytotoxicity at 70.5 h           -16.7
14  CCOC1COC2(CCN(c3ncc(C)cn3)CC2)C1 (stereo not drawn)  cytotoxicity at 70.5 h           -2.14
15  Cc1cc(CN2C[C@@H]3COC[C@]3(CNC(=O)N(C)C)C2)no1  cytotoxicity at 70.5 h           -1.07
16  Cc1ccc(-n2cc(C(=O)NCc3nnc4n3CCCCC4)nn2)cc1  cytotoxicity at 70.5 h           -3.85
17  CNCC(=O)N1CCCC1c1cncc(Oc2ccc(F)cc2)n1 (stereo not drawn)  cytotoxicity at 70.5 h           -2.91
18  CCc1nccc(CN2CCC(CNC(=O)Nc3ccccc3)C2)n1 (stereo not drawn)  cytotoxicity at 70.5 h            18.8

====

Recorded cytotoxicity at 70.5 h by entry
- procedureText: Human HepG2 cell viability assay in 384 well format
- Assay type: toxicity, cell-based
- Parameters: dose 125 nL, time 70.5 hour; concentration not given beside the values
- measurementSetup: HepG2 cells, read-out: Inhibition
measurementName: cytotoxicity at 70.5 h (%)

> print(dat)
                                    compound         measurementname  recordedresult
 1  COc1cccc(S(=O)(=O)NC(=O)c2c(C)noc2C(C)C)c1  cytotoxicity at 70.5 h           -3.75
 2     COc1cc(F)ccc1N1CCN(Cc2nc(C)c(C)o2)CC1  cytotoxicity at 70.5 h           -11.2
 3  O=S(=O)(c1cn[nH]c1)N1CCCC(O)(CN2CCOCC2)CC1 (stereo not given)  cytotoxicity at 70.5 h           -3.34
 4  Cc1cc(C)n2cc(CN3CCCC3Cn3nc(C)nc3C)nc2n1 (stereo not given)  cytotoxicity at 70.5 h           -6.16
 5      CN(C)c1ccc(NC(=O)NCc2cccnc2N(C)C)cn1  cytotoxicity at 70.5 h           -8.32
 6  O=C(O)c1csc(S(=O)(=O)Nc2cccc(OCC(F)(F)F)c2)c1  cytotoxicity at 70.5 h           -3.57
 7  CCOCCn1c(=O)[nH]c2cc(C(=O)N(C)Cc3ccno3)ccc21  cytotoxicity at 70.5 h           -1.24
 8  Cc1cnc(C(=O)N2C[C@H]3CC[C@@H]2CN(S(=O)(=O)N(C)C)C3)cn1  cytotoxicity at 70.5 h           -7.71
 9  CN(CCc1ccc(F)cc1)Cc1nc2c(cnn2C)c(=O)[nH]1  cytotoxicity at 70.5 h            11.7
10        Cc1cnn(CCNCc2ccc(OCc3ccncc3)cc2)c1  cytotoxicity at 70.5 h           0.513
11  CCC(C)CN(C)C(=O)NCc1ccccc1-n1cccn1 (stereo not given)  cytotoxicity at 70.5 h            1.17
12  Cc1nc(CO[C@@H]2CN(Cc3cccnc3)[C@@H]3COC[C@@H]32)cs1  cytotoxicity at 70.5 h           -10.3
13         Cc1cccc2c1cnn2CCC(=O)NCC(=O)N(C)C  cytotoxicity at 70.5 h           -9.91
14    CC(C)c1nnc2n1CCN(CCC(=O)Nc1sccc1C#N)C2  cytotoxicity at 70.5 h           -1.15
15  O=C(c1cc(F)cc2[nH]cnc12)N1CCCCC1Cn1cccn1 (stereo not given)  cytotoxicity at 70.5 h            -7.7
16  CCCOC1CCCN(C(=O)c2[nH]nc(C)c2Br)C1 (stereo not given)  cytotoxicity at 70.5 h           -8.95
17  CCCn1cnc2c1CN(C(=O)c1ccc(F)cc1)[C@H](C(=O)OC)C2  cytotoxicity at 70.5 h           -7.42
18  Cc1cccc(S(=O)(=O)NCC(C)(C)CC(C)O)c1C#N (stereo not given)  cytotoxicity at 70.5 h           -6.31
19    Cc1ccc(NC(=O)N(CCO)CCO)c(OCc2ccccc2)c1  cytotoxicity at 70.5 h            10.5
20  CCOC[C@@H]1CC[C@H]2[C@H](CCN2S(=O)(=O)Cc2ccccc2)O1  cytotoxicity at 70.5 h            10.7
21  CNC(=O)NC(=O)CN(CC(C)O)c1ccccc1 (stereo not given)  cytotoxicity at 70.5 h           -3.36
22        COc1ccccc1CC(C)(C)NC(=O)CN(C)C(C)C  cytotoxicity at 70.5 h           -11.5
23     CCSc1ccc(C(=O)Nc2c(C)nn(C(C)C)c2C)cn1  cytotoxicity at 70.5 h            14.1
24  O=C(CNC(=O)C1CCCC1)NCC(O)c1ccc2ccccc2c1 (stereo not given)  cytotoxicity at 70.5 h          -0.471
25    CCn1nc(C)c2nc(C(C)C)nc(N3CCN(C)CC3)c21  cytotoxicity at 70.5 h            29.8
26  CC(C)C(=O)N1CCC2(CC1)[C@@H]1CN(C(=O)N(C)C)C[C@@H]1C(=O)N2C  cytotoxicity at 70.5 h            28.3
27          O=C(c1cnc(-c2cccnc2)nc1)N1CCSCC1  cytotoxicity at 70.5 h            21.6
28  COC(=O)c1cccn1C1CCN(C(=O)c2ccc(C)cc2O)CC1  cytotoxicity at 70.5 h           -8.93
29  CNC(=O)[C@@]12CCO[C@@H]1CCN(Cc1c(C)noc1C)C2  cytotoxicity at 70.5 h           -6.35
30      Cc1nn(C)c2c(NCc3cccnc3)nc(C3CC3)nc12  cytotoxicity at 70.5 h           -3.52
31  CC(C)n1[nH]c(=O)c2c1NC(=O)CC2c1cccc(O)c1 (stereo not given)  cytotoxicity at 70.5 h           -9.65
32  CCCn1nccc1C(=O)N1CCN(C(=O)C2CC2)[C@@H]2CS(=O)(=O)C[C@@H]21  cytotoxicity at 70.5 h            11.1
33  Cc1nc(N2CCOCC2)nc(C)c1NC(=O)Cc1ccc(Cl)cc1  cytotoxicity at 70.5 h            13.5
34     CCc1ncc2c(n1)CN(CC(=O)Nc1nnc(C)s1)CC2  cytotoxicity at 70.5 h           -3.21
35      Cc1nc(-c2ccccc2F)sc1C(=O)N1CCN(C)CC1  cytotoxicity at 70.5 h           -10.6
36  COCCN1CCC12CCN(C(=O)c1ccc(C)nc1)C2 (stereo not given)  cytotoxicity at 70.5 h           -16.4
37  COCC1CN(Cc2ccc(C)o2)Cc2cnn(CC3CCOCC3)c21 (stereo not given)  cytotoxicity at 70.5 h            6.49
38  CCC(C)C(=O)NCCc1nc(C(F)(F)F)cs1 (stereo not given)  cytotoxicity at 70.5 h           -6.38
39  CCCn1nccc1-c1cnc(CC2CCN(C(C)=O)C2)cn1 (stereo not given)  cytotoxicity at 70.5 h           -3.63
40  Cc1cnc(C(NC(=O)NCc2nc(C3CC3)no2)C2CC2)s1 (stereo not given)  cytotoxicity at 70.5 h           -1.45

From: ChEMBL document CHEMBL3507680
